src = patent US20050187155A1

System: MMP-9
Experiment Summary: cell-based or functional assay
Observable: IC50 for the inhibition of MMPs using a fluorescein conjugated gelatin (µM)

1. NLHLPLPLL [NLHLPLPLL (SEQ ID NO:12)]
2. FVAPFPEVFG [FVAPFPEVFG (SEQ ID NO:23)]
3. LNENLLRFFVAPFPEVFG [LNENLLRFFVAPFPEVFG (SEQ ID NO:20)]
(Q) # rank_down: sort by IC50 for the inhibition of MMPs using a fluorescein conjugated gelatin, max first Answer by naming the labels in the order asked.
(A) 1, 2, 3
(1: 600 µM, 2: 400 µM, 3: 150 µM)
